- study-target: human mGluR7 (Homo sapiens (Human), UniProt Q14831)
- Sequence (Q14831 35-915): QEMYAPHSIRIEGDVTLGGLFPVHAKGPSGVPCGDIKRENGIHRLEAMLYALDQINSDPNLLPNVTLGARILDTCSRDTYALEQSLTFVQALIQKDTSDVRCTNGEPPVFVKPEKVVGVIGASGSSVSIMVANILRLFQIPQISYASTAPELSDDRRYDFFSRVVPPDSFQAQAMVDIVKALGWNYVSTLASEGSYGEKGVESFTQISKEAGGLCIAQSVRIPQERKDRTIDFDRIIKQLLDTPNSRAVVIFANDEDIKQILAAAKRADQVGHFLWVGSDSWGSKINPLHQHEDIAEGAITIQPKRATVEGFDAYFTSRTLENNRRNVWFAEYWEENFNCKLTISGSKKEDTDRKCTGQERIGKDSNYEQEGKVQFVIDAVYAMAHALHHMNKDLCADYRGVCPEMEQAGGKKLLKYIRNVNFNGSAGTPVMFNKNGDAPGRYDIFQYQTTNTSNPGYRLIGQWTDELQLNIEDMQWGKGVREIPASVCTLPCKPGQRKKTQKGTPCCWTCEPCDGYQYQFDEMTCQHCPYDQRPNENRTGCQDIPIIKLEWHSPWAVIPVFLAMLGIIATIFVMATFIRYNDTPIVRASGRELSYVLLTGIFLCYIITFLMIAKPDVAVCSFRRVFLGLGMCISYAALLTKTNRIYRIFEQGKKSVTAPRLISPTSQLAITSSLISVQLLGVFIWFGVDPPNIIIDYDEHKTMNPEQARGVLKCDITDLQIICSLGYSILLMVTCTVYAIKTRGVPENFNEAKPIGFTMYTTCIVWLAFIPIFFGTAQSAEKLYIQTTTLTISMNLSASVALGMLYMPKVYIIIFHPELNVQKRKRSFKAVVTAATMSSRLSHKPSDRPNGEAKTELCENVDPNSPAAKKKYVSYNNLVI
- test-method-notes: Inositol monophosphate production assay (IP1 assay), inhibition of L-AP4 response
- Format: cell-based
- stated-conditions: mean IC50 from at least two independent experiments; HEK293 cells transiently transfected with mGluR7, Gqtop and EAAC1; IP1 production vs EC80 L-AP4
measure-name: IC50

QUERY: Find the measured IC50 of COc1cccc(C2CCc3c(cnn(-c4ncc(C5CC5)cn4)c3=O)C2)c1C (centres unmarked) and report it.
RESULT: < 500 nM

QUERY: Find the measured IC50 of CC(=O)Nc1cnc(-n2ncc3c(c2=O)CCC(c2ccc(C)cc2C)C3)nc1 (single isomer, unassigned; (+)) [Example 137] and report it.
RESULT: < 500 nM

QUERY: Find the measured IC50 of Cc1ccc(C2CCc3c(cnn(-c4cn(C)cn4)c3=O)C2)c(C)c1 (centres unmarked) and report it.
RESULT: 1000 to 30000 nM

QUERY: Find the measured IC50 of O=c1c2c(cnn1-c1ncccn1)CC(c1cccc3c1ccn3C1CC1)CC2 (centres unmarked) [Example 124] and report it.
RESULT: < 500 nM

QUERY: Find the measured IC50 of COc1cccnc1-n1ncc2c(c1=O)CCC(c1ccc(C)cc1C)C2 (centres unmarked) and report it.
RESULT: < 500 nM

QUERY: Find the measured IC50 of Cc1ccc(C2CCc3c(cnn(-c4ncc(CN5CCOCC5)cn4)c3=O)C2)c(C)c1 (centres unmarked) and report it.
RESULT: < 500 nM

QUERY: Find the measured IC50 of COc1cccc(C2CCc3c(cnn(-c4ncccn4)c3=O)C2)c1C (centres unmarked) and report it.
RESULT: < 500 nM

QUERY: Find the measured IC50 of COc1cnc(-n2ncc3c(c2=O)CCC(c2cccc(OC)c2C)C3)cn1 (centres unmarked) and report it.
RESULT: < 500 nM

QUERY: Find the measured IC50 of COc1ccc(C)c(C2CCc3c(cnn(-c4ncc(C5CC5)cn4)c3=O)C2)c1 (centres unmarked) and report it.
RESULT: 500 to 1000 nM

QUERY: Find the measured IC50 of COc1cc(C)ccc1C1CCc2c(cnn(-c3ncccn3)c2=O)C1 (centres unmarked) and report it.
RESULT: 500 to 1000 nM

QUERY: Find the measured IC50 of Cc1ccc(C2CCc3c(cnn(-c4ccncc4)c3=O)C2)c(C)c1 (centres unmarked) and report it.
RESULT: < 500 nM

QUERY: Find the measured IC50 of COc1cccc(C2CCc3c(cnn(-c4ncc(N5CCOCC5)cn4)c3=O)C2)c1C (centres unmarked) and report it.
RESULT: < 500 nM

QUERY: Find the measured IC50 of Cc1ccc(C2CCc3c(cnn(-c4ccc(O)cn4)c3=O)C2)c(C)c1 (centres unmarked) and report it.
RESULT: < 500 nM

QUERY: Find the measured IC50 of COc1ccc(C)c(C2CCc3c(cnn(-c4ncc(Cl)cn4)c3=O)C2)c1 (centres unmarked) and report it.
RESULT: < 500 nM

QUERY: Find the measured IC50 of COc1ccnc(-n2ncc3c(c2=O)CCC(c2ccc(C)cc2C)C3)c1 (centres unmarked) and report it.
RESULT: < 500 nM

QUERY: Find the measured IC50 of COc1cccc(C2CCc3c(cnn(-c4ncc(C)cn4)c3=O)C2)c1Cl (single isomer, unassigned; (-)) [Example 134] and report it.
RESULT: < 500 nM

QUERY: Find the measured IC50 of COc1cccc(C2CCc3c(cnn(-c4nccc(N5CCOCC5)n4)c3=O)C2)c1C (centres unmarked) and report it.
RESULT: < 500 nM

QUERY: Find the measured IC50 of Cc1c(OCc2ccccc2)cccc1C1CCc2c(cnn(-c3ncccn3)c2=O)C1 (centres unmarked) and report it.
RESULT: 1000 to 30000 nM

QUERY: Find the measured IC50 of COCCCOc1cccc(C2CCc3c(cnn(-c4ncccn4)c3=O)C2)c1C (centres unmarked) and report it.
RESULT: < 500 nM

QUERY: Find the measured IC50 of COc1c(C)cccc1C1CCc2c(cnn(-c3ccccn3)c2=O)C1 (centres unmarked) and report it.
RESULT: 500 to 1000 nM

QUERY: Find the measured IC50 of Cc1ccc(C2CCc3c(cnn(-c4ncc(N5CCC5)cn4)c3=O)C2)c(C)c1 (centres unmarked) and report it.
RESULT: < 500 nM

QUERY: Find the measured IC50 of COc1ccc(Cl)c(C2CCc3c(cnn(-c4ncccn4)c3=O)C2)c1 (centres unmarked) and report it.
RESULT: < 500 nM

QUERY: Find the measured IC50 of Cc1ccc(C2CCc3c(cnn(-c4ccc(C#N)cn4)c3=O)C2)c(C)c1 (centres unmarked) and report it.
RESULT: < 500 nM
